# credit: PubChem BioAssay (NCATS)

test: qHTS for differential inhibitors of proliferation of Plasmodium falciparum line D10 (AID 1877); settings: series mostly up to 28.7 µM;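 further: parasites grown with compound for 72 h before DNA staining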
Results filed as inconclusive are left out. The source made the active and inactive calls. The call rests on the fitted dose curve; in most records, active means well fitted curve in the direction sought with a large enough effect; inconclusive means small, poorly fitted or top-dose-only effect, or another doubt; inactive means no such curve, though single readings can be large or run the other way.
Outcome codes: yes for active, no for inactive

mol | cat
CCCN(CCC)C1Cc2cc(OC)c(OC)cc2C1 | no
O=S1(=O)N(CCN2CC=C(c3c[nH]c4cc(F)ccc34)CC2)c2cccc3c2N1CCC3 | yes
C[N+](C)(C)CCOC(=O)CBr | no
CC(C)(C)c1cc(C=C(C#N)C#N)cc(C(C)(C)C)c1O | yes
CNc1ccc2oc(C[C@H]3O[C@@]4(CC[C@H]3C)O[C@H]([C@H](C)C(=O)c3ccc[nH]3)[C@H](C)C[C@H]4C)nc2c1C(=O)O | yes

----------
molecular target: Rap guanine nucleotide exchange factor 3 (Homo sapiens) (UniProt O95398); experiment: Confirmatory qHTS for agonist of cAMP-regulated guanine nucleotide exchange factor 3 (EPAC1) (AID 1645881); conditions: EPAC1 Rap1B BODIPY-GDP exchange fluorescence; series mostly up to 154 µM; further: nearly all actives have a fitted effect of over 75% in size;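 on activation: EPAC1 catalysed release of BODIPY-GDP from Rap1B seen as fluorescence loss; 100% = effect of cAMP agonist control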
Sequence (O95398 whole entry, looked up): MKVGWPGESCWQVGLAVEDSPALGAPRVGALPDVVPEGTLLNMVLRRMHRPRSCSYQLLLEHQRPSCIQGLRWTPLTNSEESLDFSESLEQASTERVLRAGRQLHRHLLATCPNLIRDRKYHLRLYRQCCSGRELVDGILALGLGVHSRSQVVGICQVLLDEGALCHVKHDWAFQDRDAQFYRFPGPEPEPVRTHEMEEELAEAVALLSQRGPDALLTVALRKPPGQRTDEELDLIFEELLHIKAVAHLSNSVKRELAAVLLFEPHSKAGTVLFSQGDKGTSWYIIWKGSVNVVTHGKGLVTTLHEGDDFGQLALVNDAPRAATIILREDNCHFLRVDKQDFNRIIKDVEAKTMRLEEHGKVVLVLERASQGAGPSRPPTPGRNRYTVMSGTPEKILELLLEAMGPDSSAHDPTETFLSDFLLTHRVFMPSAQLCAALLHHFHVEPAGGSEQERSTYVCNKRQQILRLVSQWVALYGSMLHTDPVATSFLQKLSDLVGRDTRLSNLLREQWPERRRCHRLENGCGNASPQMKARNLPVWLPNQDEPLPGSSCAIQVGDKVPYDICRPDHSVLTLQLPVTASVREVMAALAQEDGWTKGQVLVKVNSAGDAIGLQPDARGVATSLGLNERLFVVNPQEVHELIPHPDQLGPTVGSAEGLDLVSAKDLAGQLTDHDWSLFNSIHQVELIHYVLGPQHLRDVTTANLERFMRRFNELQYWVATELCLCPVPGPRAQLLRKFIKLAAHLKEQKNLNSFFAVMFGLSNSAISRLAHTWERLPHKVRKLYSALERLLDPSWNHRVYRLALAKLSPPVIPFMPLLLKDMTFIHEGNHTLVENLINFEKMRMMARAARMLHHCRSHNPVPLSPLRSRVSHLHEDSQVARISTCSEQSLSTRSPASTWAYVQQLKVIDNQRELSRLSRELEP
Records with an inconclusive call do not appear. Calls of active or inactive are those of the source. Calls come from the whole dose curve; as a rule, active = well fitted activation curve with a large enough effect; inconclusive = small, poorly fitted or top-dose-only effect; inactive = no such curve, though single readings can be large or run the other way.
Outcome codes: active, inactive

compound | cat
O=[N+]([O-])c1cc(O)c(O)c([N+](=O)[O-])c1 | inactive
O=C1OC2(c3cc(Br)c(O)cc3Oc3c2cc(Br)c(O)[c]3[Hg])c2ccccc21 (stereo not given) | active
O=c1[nH]cc(N(CCCl)CCCl)c(=O)[nH]1 | inactive
CC(C)(C)c1cc(O)ccc1O | inactive
O=C1CN=C(c2ccccc2)c2cc(Cl)ccc2N1CC1CC1 | inactive

----------
experiment: qHTS Assay for Identifying Gametocytocidal Compounds (AID 743244);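 further: on the % scale 0 is the no-effect control and ±100 the full control effect; actives lower the fluorescent signal which means gametocytes are killed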; details: P. falciparum 3D7 stage III-V gametocytes, alamarBlue, 72 h; active compounds read low
Inconclusive results are not listed.
Below: a set of entries, each annotated with reported max response.
experimental-endpoint: max response (%)

compound | experimental-endpoint | quantity-unit | endpoint-result
CN(C)[C@@H]1C(=O)C(C(N)=O)=C(O)[C@@]2(O)C(=O)C3=C(O)c4c(O)ccc(Cl)c4[C@@](C)(O)[C@H]3C[C@@H]12 | max response | % | 3.58
O=c1[nH]cc(N(CCCl)CCCl)c(=O)[nH]1 | max response | % | -3.92
COC([CH2][Hg])CNC(=O)c1ccccc1OCC(=O)O (stereo not given) | max response | % | 2.8
NC(Cc1cc(O)c(O)cc1O)C(=O)O (stereo not given) | max response | % | 2.05
CC1(C)[C@H](C=C(Cl)Cl)[C@H]1C(=O)OCc1c(F)c(F)cc(F)c1F | max response | % | 0.31
CC(C)CCC(=O)O[C@H]1CC[C@H]2[C@@H]3CCC4=CC(=O)CC[C@]4(C)[C@H]3CC[C@]12C | max response | % | 13.7
NCC(O)c1cccc(O)c1 (stereo not given) | max response | % | 13.2
Clc1cc(I)cc(Cl)c1NC1=NCCN1 | max response | % | 44.8
C[N+](C)(C)CC#CCOC(=O)Nc1cccc(Cl)c1 | max response | % | 12.7
O=c1ccc2cc(O[C@@H]3O[C@H](CO)[C@@H](O)[C@H](O)[C@H]3O)c(O)cc2o1 | max response | % | 0.481

----------
test system: CP269; assay: qHTS profiling for inhibitors of Plasmodium falciparum proliferation (AID 504749); further: nearly all actives have a fitted effect of over 60% in size; further: potency means the concentration at half of the fitted maximal effect; conditions: P. falciparum in erythrocytes, SYBR Green DNA, 72 h; series mostly up to 28.7 µM
Inconclusive results are not listed. Activity calls are given as the source filed them. Calls come from the whole dose curve; as a rule, active = well fitted inhibition curve with a large enough effect; inconclusive = small, poorly fitted or top-dose-only effect; inactive = flat fitted curve, though single readings scatter.
experimental-endpoint: Potency

molecule | endpoint-result
Clc1ccccc1Cl | inactive
COc1ccc(OC)c(C(O)C(C)N)c1 (stereo not given) | inactive
Cc1sc2ccccc2c1CC1=NCCN1 | inactive
Cn1sc(Cl)cc1=O | inactive
COCC(C)N(C(=O)CCl)c1c(C)csc1C (stereo not given) | inactive
CC(=O)O[C@H]1CC[C@H]2[C@@H]3CCC4=CC(=O)CCC4=C3C=C[C@]12C | inactive
N#CC(C#N)=Cc1cc(O)c(O)c(O)c1 | 10.7 µM (active)
CC(=O)OC1CN2CCC1CC2 (stereo not given) | inactive
C[C@]12CCC(=O)C[C@@H]1CC[C@@H]1[C@@H]2CC[C@]2(C)[C@@H](O)CC[C@@H]12 | inactive
CN1[C@@H]2CC[C@H]1CC(OC1c3ccccc3CCc3ccccc31)C2 (stereo not given in full) | inactive
O=[N+]([O-])C(Br)(CO)CO | inactive
N#CC1(N2CCCCC2)CCCCC1 | inactive
O=C(O)C(Cl)(Cl)Cl | inactive
O=S(=O)(O)c1cc(O)ccc1O | inactive
CN1C2CCC1CC(OC(c1ccccc1)c1ccc(Cl)cc1)C2 (stereo not given) | 9.53 µM (active)
O[C@H]1[C@H]2[C@H](O)CCCN2C[C@H]1O | inactive
CC(C)(C)c1cc(O)ccc1O | 13.5 µM (active)
O=c1[nH]cc(N(CCCl)CCCl)c(=O)[nH]1 | inactive
c1ccc2sc(SNC3CCCCC3)nc2c1 | inactive
CCC1(C)CC(=O)NC(=O)C1 | inactive
CC(C)Nc1ccc(Nc2ccccc2)cc1 | 6.75 µM (active)
O=CC=O | inactive
CC(=O)OO | inactive
C[N+]1(C)CCCCC1COC(=O)C(O)(c1ccccc1)c1ccccc1 (stereo not given) | inactive
ClC(Cl)(Cl)Cl | inactive
N#CN | inactive
CC[N+](C)(CC)CCOC(=O)C(O)(c1ccccc1)c1ccccc1 | inactive
C[CH2][Hg][S]c1ccccc1C(=O)O | 1.69 µM (active)
ClC=C(Cl)Cl | inactive
NCC(O)c1cccc(O)c1 (stereo not given) | inactive

----------
target: Thyrotropin-releasing hormone receptor (Homo sapiens) (UniProt P34981); test: qHTS for Small Molecule Agonists and Allosteric Enhancers of Human TRH Receptor: Validation Screen for Agonists (AID 493127); conditions: TRH receptor agonist cell assay; at 2 µM; active compounds read high;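 further: intracellular calcium rise by fluo-8 fluorescence before TRH EC20 addition; 0% is about no effect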
Sequence (P34981 whole entry, looked up): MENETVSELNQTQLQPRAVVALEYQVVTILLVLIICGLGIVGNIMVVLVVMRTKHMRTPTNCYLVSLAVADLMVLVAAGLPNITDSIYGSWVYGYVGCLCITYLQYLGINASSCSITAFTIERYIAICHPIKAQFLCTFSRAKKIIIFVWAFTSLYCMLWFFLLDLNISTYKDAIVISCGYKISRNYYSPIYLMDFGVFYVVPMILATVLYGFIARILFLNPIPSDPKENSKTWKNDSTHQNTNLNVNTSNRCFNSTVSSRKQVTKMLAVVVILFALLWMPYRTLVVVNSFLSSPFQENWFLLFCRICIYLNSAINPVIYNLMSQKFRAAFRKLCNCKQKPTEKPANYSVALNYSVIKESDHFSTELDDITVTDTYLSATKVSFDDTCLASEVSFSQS

molecule | quantity-unit | activation
CCCN(CCC)CCc1c[nH]c2ccc(C(N)=O)cc12 | % | 0
CP(=O)(O)C1=CCNCC1 | % | 0.188
CN(N=O)c1cc(O)ccc1O | % | -2.69
CCN(CCCl)Cc1ccccc1Br | % | -8
c1ccc2c(N3CCNCC3)cccc2c1 | % | 1.75
NCC(CP(=O)(O)O)c1ccc(Cl)cc1 (configuration not stated) | % | 0.5
CC(N)[C@H](O)c1ccc(O)c(O)c1 (some centres not stated) | % | 1.12
Ic1ccccc1CNC1C2CCN(CC2)C1C(c1ccccc1)c1ccccc1 (configuration not stated) | % | 2.31
N[C@@H](CCl)C(=O)O | % | 1.31
NC(N)=Nc1ccc2[nH]c3c(c2c1)C[C@@]1(O)[C@H]2Cc4ccc(O)c5c4[C@@]1(CCN2CC1CC1)[C@H]3O5 | % | 0.188
C[C@]12Cc3cn4c(nc3C=C1CCC1C2CC[C@@]2(C)[C@H]1CC[C@@]2(O)C#N)nc1ccccc14 (some centres not stated) | % | -4.5
C[N+]1(C)CCN(c2ccccc2)CC1 | % | 0.438

----------
test system: AS120; assay: qHTS profiling for inhibitors of Plasmodium falciparum proliferation (AID 504749); further: nearly all actives have a fitted effect of over 60% in size; settings: P. falciparum in erythrocytes, SYBR Green DNA, 72 h; series mostly up to 28.7 µM
Records with an inconclusive call do not appear. Active and inactive are the calls of the source. Calls come from the whole dose curve; as a rule, active = well fitted inhibition curve with a large enough effect; inconclusive = small, poorly fitted or top-dose-only effect; inactive = flat fitted curve, though single readings scatter.
Outcome codes: active, inactive

compound | tgt | cat
O=C(NC(=O)c1c(F)cccc1F)Nc1ccc(Cl)c(Oc2ncc(C(F)(F)F)cc2Cl)c1 | AS120 | inactive
CNC(C)C(O)c1ccc(O)cc1 (stereo not drawn) | AS120 | inactive
CCOC(=O)c1ccccc1C(=O)OCC | AS120 | inactive
NCC(O)c1cccc(O)c1 (stereo not drawn) | AS120 | inactive
O=P(O)(O)C(Cl)(Cl)P(=O)(O)O | AS120 | inactive
C[N+]1(C)C2CCC1CC(OC(=O)c1c[nH]c3ccccc13)C2 (stereo not drawn) | AS120 | inactive
CC(C)(O)C1C2OC(=O)C1C1(O)CC3OC34C(=O)OC2C14C (stereo not drawn) | AS120 | inactive
ClCC1CO1 (stereo not drawn) | AS120 | inactive
CC(=O)O[C@H]1CC[C@H]2[C@@H]3CCC4=CC(=O)CCC4=C3C=C[C@]12C | AS120 | inactive
O=C(CCl)c1ccc(Oc2ccc(C(=O)CCl)cc2)cc1 | AS120 | inactive
Oc1cccc[c]1[Hg][Cl] | AS120 | active
N#CC(C#N)=Cc1cc(O)c(O)c(O)c1 | AS120 | active
CCC1(C)CC(=O)NC(=O)C1 | AS120 | inactive
O=CC=O | AS120 | inactive
O=C1CCO1 | AS120 | inactive
COCC(C)N(C(=O)CCl)c1c(C)csc1C (stereo not drawn) | AS120 | inactive
O=C1CN(O)C(c2ccccc2)=c2cc(Cl)ccc2=N1 | AS120 | inactive
O=C1C2CC=CCC2C(=O)N1SC(Cl)(Cl)Cl (stereo not drawn) | AS120 | inactive
CC(C)Nc1ccc(Nc2ccccc2)cc1 | AS120 | active
C[CH2][Hg][S]c1ccccc1C(=O)O | AS120 | active
[O]=[Cd] | AS120 | inactive
N#CC1(N2CCCCC2)CCCCC1 | AS120 | inactive
ClC(Cl)(Cl)Cl | AS120 | inactive
C=CCN1CCC23c4c5ccc(O)c4O[C@H]2C(=O)CC[C@@]3(O)C1C5 (stereo partly drawn) | AS120 | inactive
CC(N)Cc1ccc(O)cc1 (stereo not drawn) | AS120 | inactive
Cc1sc2ccccc2c1CC1=NCCN1 | AS120 | inactive
CC1CCC(C(C)C)C(OC(=O)c2ccccc2N)C1 (stereo not drawn) | AS120 | inactive
COc1ccc2c(c1OC)C(=O)OC2C1c2cc3c(cc2CCN1C)OCO3 (stereo not drawn) | AS120 | inactive
